target: HCMV polymerase (Human cytomegalovirus, UniProt P08546); construct: made in house; host or cells: recombinant baculovirus-infected SF-9 cells; assay: HCMV polymerase assay (scintillation proximity assay); type: biochemical; settings: Table 11; read-out: CMV pol Assay IC50
Sequence (P08546 whole entry): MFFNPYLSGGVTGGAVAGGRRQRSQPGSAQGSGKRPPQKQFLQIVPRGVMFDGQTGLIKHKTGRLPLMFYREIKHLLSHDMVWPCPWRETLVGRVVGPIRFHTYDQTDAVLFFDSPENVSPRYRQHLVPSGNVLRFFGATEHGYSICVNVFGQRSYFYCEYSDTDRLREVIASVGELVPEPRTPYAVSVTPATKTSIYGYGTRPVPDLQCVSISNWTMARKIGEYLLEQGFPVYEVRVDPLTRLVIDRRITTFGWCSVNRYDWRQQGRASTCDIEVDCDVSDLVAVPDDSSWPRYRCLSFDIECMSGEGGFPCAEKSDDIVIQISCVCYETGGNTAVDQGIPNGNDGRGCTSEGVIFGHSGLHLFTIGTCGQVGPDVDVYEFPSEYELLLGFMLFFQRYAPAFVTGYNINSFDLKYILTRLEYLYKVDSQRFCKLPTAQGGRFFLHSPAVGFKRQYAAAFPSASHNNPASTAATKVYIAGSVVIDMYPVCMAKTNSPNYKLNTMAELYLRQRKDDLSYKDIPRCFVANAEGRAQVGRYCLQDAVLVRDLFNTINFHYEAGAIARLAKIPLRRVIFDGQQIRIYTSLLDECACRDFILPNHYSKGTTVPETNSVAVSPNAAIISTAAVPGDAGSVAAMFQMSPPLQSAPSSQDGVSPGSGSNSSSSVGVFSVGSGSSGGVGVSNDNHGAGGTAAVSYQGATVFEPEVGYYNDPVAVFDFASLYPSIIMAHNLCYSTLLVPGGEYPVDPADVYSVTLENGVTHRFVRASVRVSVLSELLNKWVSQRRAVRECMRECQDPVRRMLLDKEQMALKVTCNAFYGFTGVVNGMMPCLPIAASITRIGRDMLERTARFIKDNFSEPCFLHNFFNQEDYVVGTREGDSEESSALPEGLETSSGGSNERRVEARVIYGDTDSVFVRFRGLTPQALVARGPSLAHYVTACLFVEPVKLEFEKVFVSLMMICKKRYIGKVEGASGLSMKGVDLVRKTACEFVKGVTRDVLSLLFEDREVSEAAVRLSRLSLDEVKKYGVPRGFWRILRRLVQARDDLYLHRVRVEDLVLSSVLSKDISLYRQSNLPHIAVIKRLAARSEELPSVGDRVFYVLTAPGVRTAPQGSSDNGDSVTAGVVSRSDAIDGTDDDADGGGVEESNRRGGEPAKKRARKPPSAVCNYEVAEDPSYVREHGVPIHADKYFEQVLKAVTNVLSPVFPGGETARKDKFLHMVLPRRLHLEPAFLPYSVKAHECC
// reported IC50 for each item listed

MOLECULE: CSCC[C@H](Nc1nnc(NC(=O)c2ccc3cccnc3c2O)s1)C(=O)OC(C)(C)C
RELATION: =
IC50 [µM]: 26.6

MOLECULE: CC(C)C[C@H](Nc1nnc(NC(=O)c2ccc3cccnc3c2O)s1)C(=O)OC(C)(C)C
RELATION: =
IC50 [µM]: 11.4

MOLECULE: CC(C)(C)OC(=O)C(Nc1nnc(NC(=O)c2ccc3cccnc3c2O)s1)c1cccc2c1OCO2 (stereo not shown)
RELATION: =
IC50 [µM]: 4.7

MOLECULE: CC(C)(C)OC(=O)NCCNc1nnc(NC(=O)c2ccc3cccnc3c2O)s1
RELATION: =
IC50 [µM]: 14.3

MOLECULE: CC(C)(C)OC(=O)[C@H](CCCCNC(=O)OCc1ccccc1)Nc1nnc(NC(=O)c2ccc3cccnc3c2O)s1
RELATION: <
IC50 [µM]: 3.1

MOLECULE: O=C(Nc1nnc(Br)s1)c1ccc2cccnc2c1O [drawing 304]
RELATION: =
IC50 [µM]: 93.2

MOLECULE: CC(C)(C)OC(=O)[C@@H]1CCCN1c1nnc(NC(=O)c2ccc3cccnc3c2O)s1
RELATION: =
IC50 [µM]: 13.9

MOLECULE: CC(C)(C)OC(=O)[C@H](Cc1ccc(O)cc1)Nc1nnc(NC(=O)c2ccc3cccnc3c2O)s1
RELATION: <
IC50 [µM]: 3.1

MOLECULE: O=C(Nc1nnc(C(F)(F)F)s1)c1ccc2cccnc2c1O [drawing 303]
RELATION: =
IC50 [µM]: 71

MOLECULE: CC(C)(C)OC(=O)C[C@H](Nc1nnc(NC(=O)c2ccc3cccnc3c2O)s1)C(=O)OC(C)(C)C
RELATION: =
IC50 [µM]: 24.2

MOLECULE: O=C(Nc1nnc(NCCc2ccccc2)s1)c1ccc2cccnc2c1O
RELATION: =
IC50 [µM]: 2.4

MOLECULE: CC(C)(C)OC(=O)C(Nc1nnc(NC(=O)c2ccc3cccnc3c2O)s1)c1ccc2c(c1)OCO2 (stereo not shown)
RELATION: =
IC50 [µM]: 4.3

MOLECULE: O=C(Nc1nnc(NC(C(=O)O)c2cccc3c2OCO3)s1)c1ccc2cccnc2c1O (stereo not shown)
RELATION: =
IC50 [µM]: 18.9

MOLECULE: CCCCNc1nnc(NC(=O)c2ccc3cccnc3c2O)s1
RELATION: =
IC50 [µM]: 2.5

MOLECULE: O=C(Nc1nnc(N[C@@H](Cc2c[nH]c3ccccc23)C(=O)O)s1)c1ccc2cccnc2c1O
RELATION: =
IC50 [µM]: 8.5

MOLECULE: CC(C)(C)OC(=O)[C@H](Cc1ccc(OC(C)(C)C)cc1)Nc1nnc(NC(=O)c2ccc3cccnc3c2O)s1
RELATION: =
IC50 [µM]: 4.5
